Recorded values, source patent US20220064329A1.

Target: T1, recombinant human activated Factor VII (FVIIa) (human, UniProt P08709 61-212; P08709 213-466, ten glutamate residues of the Gla domain may be gamma-carboxylated)
T1 construct: chains tethered by a disulfide bond; also called Factor VIIa; rFVIIa
T1 sequence 1: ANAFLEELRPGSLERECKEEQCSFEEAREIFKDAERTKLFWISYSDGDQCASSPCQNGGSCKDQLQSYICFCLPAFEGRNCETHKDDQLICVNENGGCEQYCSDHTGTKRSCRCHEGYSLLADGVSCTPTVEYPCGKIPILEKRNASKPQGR
T1 sequence 2: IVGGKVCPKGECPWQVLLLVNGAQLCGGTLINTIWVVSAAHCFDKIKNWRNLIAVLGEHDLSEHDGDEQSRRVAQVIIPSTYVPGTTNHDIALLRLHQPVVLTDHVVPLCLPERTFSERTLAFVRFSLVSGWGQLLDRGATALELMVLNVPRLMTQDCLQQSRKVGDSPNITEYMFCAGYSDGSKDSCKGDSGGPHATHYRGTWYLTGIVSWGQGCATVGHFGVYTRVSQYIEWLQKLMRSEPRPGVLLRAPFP
Assay: BLI (Fortebio)
pKd: −log10 of the molar value.
I would appreciate it if you labelled entries MET when pKd is 8 or higher, otherwise NOT MET.

Solved entries:
VH SEQ ID NO 586 / VL SEQ ID NO 438 (antibody, IgG4, V domains shown, humanized 11F2; IgG4 S228P/kappa) VH: QVQLQESGPGLVKPSDTLSLTCAVSGYSISSDSAWSWIRQPPGKGLEWIGYIQYSGSTNYNPSLKSRVTMSVDTSKNQFSLKLSSVTALDTAVYYCARSVNYYGNSFAVGYWGQGTLVTVSS VL: EIVLTQSPATLSLSPGERATLSCRASQGVSDYLAWYQQKPGQAPRLLIKYASQPATGIPARFSGSGSGTDFTLTISSLEPEDVAVYYCQNGHSFPLTFGQGTKLEIK :: NOT MET
VH SEQ ID NO 538 / VL SEQ ID NO 422 (antibody, IgG4, V domains shown, humanized 11F2; IgG4 S228P/kappa) VH: QVQLQESGPGLVEPSQTLSLTCTVSGYSITSDSAWSWIRQPPGKKLEWIGYIQYSGSTNYNPSLKSRVTISRDTSKNQFSLKLSSVTAADTAVYYCARSVNYYGNSFAVGYWGQGTLVTVSS VL: EIVLTQSPATLSLSPGERATLSCRASQGVSDYLAWYQQKPGQAPRLLIKYASQPATGIPARFSGSGSGTDFTLTISSLEPEDFAVYYCQQGHSFPLTFGQGTKLEIK :: NOT MET
VH SEQ ID NO 522 / VL SEQ ID NO 318 (antibody, IgG4, V domains shown, humanized 11F2; IgG4 S228P/kappa) VH: QVQLQESGPGLVEPSQTLSLTCTVSGYSISSDSAWSWIRQPPGKGLEWIGYIQYSGSTNYNPSLKSRVTISRDTSKNQFSLKLSSVTAADTAVYYCARSVNYYGNSFAVGPWGQGTLVTVSS VL: EIVLTQSPATLSLSPGERATLSCRASQGISDYLHWYQQKPGEAPRLLIKYTSQPATGIPARFSGSGSGTDFTLTISSLEPEDFAVYYCQNGHSFPLTFGQGTKLEIK :: MET
VH SEQ ID NO 650 / VL SEQ ID NO 350 (antibody, IgG4, V domains shown, humanized 11F2; IgG4 S228P/kappa) VH: QVQLQESGPGLVKPSQTLSLTCTVSGYSISSDSAWSWIRQPPGKKLEWIGYIQYSGSTNYNPSLKSRVTISRDTSKNQFSLKLSSVTAADTAVYYCARSVNYYGNSFAVGPWGQGTLVTVSS VL: EIVLTQSPATLSLSPGERATLSCRASQGISDYLHWYQQKPGQAPRLLIKYTSQPATGIPARFSGSGSGTDFTLTISSLEPEDFAVYYCQNGHSFPLTFGAGTKLELK :: MET

Turning now to a further binder:
Ask | Determine whether this binder has pKd no lower than 8: VH SEQ ID NO 626 / VL SEQ ID NO 358 (antibody, IgG4, V domains shown, humanized 11F2; IgG4 S228P/kappa) VH: QVQLQESGPGLVKPSQTLSLTCTVSGYSISSDSAWSWIRQPPGKGLEWIGYIQYSGSTNYNPSLKSRVTISRDTSKNQFSLKLSSVTAADTAVYYCARSVNYYGNSFAVGPWGQGTLVTVSS VL: EIVLTQSPATLSLSPGERATLSCRASQGISDYLHWYQQKPGQAPRLLIKYTSQPATGIPARFSGSGSGTDFTLTISSLEPEDFAVYYCQNGHSFPLTFGQGTKLEIK
Reply | MET
